For each record, write down the corresponding pIC50.
# TARGET_UNDER_TEST: full length recombinant Pim-1 protein (Homo sapiens)
# Construct: by full length recombinant Pim-1, Pim-2, or Pim-3 protein; hexahistidine tag followed by a thrombin cleavage site (N); made in house; host or cells: Sf9 (baculovirus) or E. coli (pET28)
# Sequence (P11309 whole entry): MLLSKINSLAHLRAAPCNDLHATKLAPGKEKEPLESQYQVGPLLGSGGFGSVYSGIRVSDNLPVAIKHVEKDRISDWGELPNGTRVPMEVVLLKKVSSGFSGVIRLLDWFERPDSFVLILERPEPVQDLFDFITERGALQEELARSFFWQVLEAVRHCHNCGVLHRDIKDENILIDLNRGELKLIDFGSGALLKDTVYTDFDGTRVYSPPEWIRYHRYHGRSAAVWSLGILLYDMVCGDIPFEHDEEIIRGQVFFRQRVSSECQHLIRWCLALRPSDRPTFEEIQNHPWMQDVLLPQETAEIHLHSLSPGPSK
# METHOD_SUMMARY: Pim-1 enzyme assay (HTRF, phosphorylation of biotinylated-BAD (S112) peptide)
# Assay type: biochemical
# RUN_PARAMETERS: read-out: Pim_1_IC50
Please report pIC50 as the negative decimal logarithm of the molar concentration, giving only the number.

**Q:** Look up and report measured pIC50 for this entry: COc1cccc(-c2ccc3[nH]cc(-c4cncc(O[C@@H]5CCCNC5)n4)c3c2)c1
**A:** 8.22

**Q:** Supply pIC50 value. Item: COc1cncc(-c2n[nH]c3ccc(-c4cnn(C(C)C)c4)cc23)n1
**A:** 6.94

**Q:** Please indicate pIC50 recorded for CS(=O)(=O)Nc1cc(-c2ccc3[nH]cc(-c4cncc(O[C@@H]5CCCNC5)n4)c3c2)cnc1Cl
**A:** 7.14

###

# TARGET_UNDER_TEST: full length recombinant Pim-1 protein (Homo sapiens)
# Construct: by full length recombinant Pim-1, Pim-2, or Pim-3 protein; hexahistidine tag followed by a thrombin cleavage site (N); made in house; host or cells: Sf9 (baculovirus) or E. coli (pET28)
# METHOD_SUMMARY: Pim-1 enzyme assay (HTRF, phosphorylation of biotinylated-BAD (S112) peptide)
# Assay type: biochemical
# RUN_PARAMETERS: read-out: Pim_1_IC50
Where a name gives a salt, the structure may show the parent alone.
METRIC_NAME: IC50 (nM)
All answers are understood in nM, so give the number only.

**Q:** # return IC50 of Brc1ccc2[nH]nc(-c3cncc(O[C@H]4CNCCC45CC5)n3)c2c1 (system: full length recombinant Pim-1 protein (Homo sapiens))
**A:** 22

**Q:** Provide IC50, recorded with full length recombinant Pim-1 protein (Homo sapiens), of C1=C(c2ccc3[nH]nc(-c4cncc(O[C@H]5CNCCC56CC6)n4)c3c2)CCOC1 [Example 263, 2,2,2-trifluoroacetate salt]
**A:** 4

**Q:** Find the measured IC50 of CC1(c2ccc3[nH]nc(-c4cncc(O[C@H]5CNCCC56CC6)n4)c3c2)CC1 with full length recombinant Pim-1 protein (Homo sapiens) as test system.
**A:** 4

**Q:** Answer briefly: IC50 recorded on full length recombinant Pim-1 protein (Homo sapiens) for FCCOc1cncc(-c2n[nH]c3ccc(-c4cncc(C5CC5)n4)cc23)n1
**A:** 4

**Q:** // fetch IC50; item: COc1cncc(-c2n[nH]c3ccc(-c4nccc(N5CCOC[C@@H]5C)n4)cc23)n1 ; system: full length recombinant Pim-1 protein (Homo sapiens)
**A:** 21

**Q:** State recorded IC50 with full length recombinant Pim-1 protein (Homo sapiens), entry c1cc2[nH]nc(-c3cncc(O[C@H]4CNCCC45CC5)n3)c2cc1C1CC1 , no comment.
**A:** 3

**Q:** Lab note: full length recombinant Pim-1 protein (Homo sapiens) assay, enter IC50 for NC1CCN(c2nc(-c3c[nH]c4ccc(-c5c(F)cccc5F)cc34)cc(=O)[nH]2)CC1 here
**A:** 1

**Q:** // fetch IC50 for N#CCc1ccc2[nH]nc(-c3cncc(O[C@H]4CNCCC45CC5)n3)c2c1 ; system: full length recombinant Pim-1 protein (Homo sapiens)
**A:** 20

**Q:** Enter recorded IC50 with full length recombinant Pim-1 protein (Homo sapiens) for C=C(C)c1ccc2[nH]nc(-c3cncc(O[C@H]4CNCCC45CC5)n3)c2c1 here.
**A:** 6

**Q:** # return IC50 of COC(=O)c1ccc2[nH]nc(-c3cncc(N[C@@H]4CCCNC4)n3)c2c1 (system: full length recombinant Pim-1 protein (Homo sapiens))
**A:** 4

**Q:** Recall the reported IC50 of Oc1cc(-c2c[nH]c3ccc(-c4c(F)cccc4F)cc23)nc(N2CCOCC2)n1 on full length recombinant Pim-1 protein (Homo sapiens) and write it down.
**A:** 4

**Q:** Print full length recombinant Pim-1 protein (Homo sapiens) IC50 for C[C@@H]1CN(c2ccc3[nH]nc(-c4cncc(O[C@H]5CNCCC56CC6)n4)c3c2)CCO1 .
**A:** 30

**Q:** Fill in: IC50 on full length recombinant Pim-1 protein (Homo sapiens), entry Fc1cccc(F)c1-c1ccc2[nH]nc(-c3cncc(OC4C=CCNC4)n3)c2c1 (single isomer, unassigned) [Example 427]
**A:** 13

**Q:** Fill: IC50 (full length recombinant Pim-1 protein (Homo sapiens)) for this compound CC1(C)CNCCC1Oc1cncc(-c2n[nH]c3ccc(-c4c(F)cccc4F)cc23)n1 (single isomer, unassigned) [Example 433]
**A:** 2

**Q:** Report its IC50 with full length recombinant Pim-1 protein (Homo sapiens) as the test system: CC(C)Cc1ccc(-c2ccc3[nH]cc(-c4cncc(O[C@@H]5CCCNC5)n4)c3c2)cc1
**A:** 43

**Q:** Report its IC50 with full length recombinant Pim-1 protein (Homo sapiens) as the test system: NC1CCN(c2cc(-c3c[nH]c4ccc(-c5ccccc5F)nc34)nc(O)n2)CC1
**A:** 364

**Q:** Identify measured IC50 obtained with full length recombinant Pim-1 protein (Homo sapiens) for c1cc(-c2ccc3[nH]cc(-c4cncc(O[C@@H]5CCCNC5)n4)c3c2)nc(N2CCNCC2)c1 .
**A:** 3

**Q:** Look up and report measured IC50 (full length recombinant Pim-1 protein (Homo sapiens)) for the following compound: c1cc(-c2ccc3[nH]cc(-c4cncc(O[C@@H]5CCCNC5)n4)c3c2)cc(-c2ccno2)c1
**A:** 6

**Q:** Please report the measured IC50 for COc1cncc(-c2n[nH]c3ccc(-c4nccc(C(C)C)n4)cc23)n1 tested on full length recombinant Pim-1 protein (Homo sapiens).
**A:** 55

**Q:** Name the recorded IC50 of CC(C)NC(=O)c1ccc(F)c(-c2ccc3[nH]nc(-c4cncc(N[C@@H]5CCCNC5)n4)c3c2)c1 , assay system full length recombinant Pim-1 protein (Homo sapiens).
**A:** 3

**Q:** Give full length recombinant Pim-1 protein (Homo sapiens) IC50 for the following compound: CC(c1ccc2[nH]nc(-c3cncc(O[C@H]4CNCCC45CC5)n3)c2c1)C(F)(F)F (some centres unmarked) [Example 258]
**A:** 9

###

# TARGET_UNDER_TEST: full length recombinant Pim-3 protein (Homo sapiens)
# Construct: by full length recombinant Pim-1, Pim-2, or Pim-3 protein
# METHOD_SUMMARY: Pim-3 enzyme assay (HTRF, phosphorylation of biotinylated-BAD (S112) peptide)
# RUN_PARAMETERS: read-out: Pim3 IC50
Hi there, I'd appreciate the recorded IC50 for every entry that follows.
Write your answer as a measured quantity: the number, then the unit.

**Q:** Respond only with IC50 recorded for CC(C)NC(=O)c1ccc(F)c(-c2ccc3[nH]nc(-c4cncc(O[C@@H]5CCCNC5)n4)c3c2)c1 [Example 122]
**A:** 20 nM

**Q:** Determine from records and report IC50 for O[C@H]1CCCN(c2cncc(-c3n[nH]c4ccc(-c5c(F)cccc5F)cc34)n2)C1 [Example 163]
**A:** 49 nM

**Q:** Provide IC50 value for the following molecule: CCCNC(=O)c1ccc(F)c(-c2ccc3[nH]nc(-c4cncc(N5CCC(N)CC5)n4)c3c2)c1 [Example 39]
**A:** 4 nM

**Q:** Supply IC50 value. Item: Fc1cccc(F)c1-c1ccc2[nH]cc(-c3nccc(NC4CCNCC4)n3)c2c1 [Example 210]
**A:** 91 nM

###

# TARGET_UNDER_TEST: full length recombinant Pim-3 protein (Homo sapiens, UniProt Q86V86)
# Construct: by full length recombinant Pim-1, Pim-2, or Pim-3 protein
# METHOD_SUMMARY: Pim-3 enzyme assay (HTRF, phosphorylation of biotinylated-BAD (S112) peptide)
# RUN_PARAMETERS: read-out: Pim3 IC50
METRIC_NAME: pIC50
In plain terms, pIC50 is the concentration in mol/L turned into minus its base-10 logarithm.

**Q:** Answer with the recorded pIC50 of NC1CCN(c2cncc(-c3n[nH]c4ccc(N5CCCCC5)cc34)n2)CC1 only.
**A:** 7.40

**Q:** Tell me pIC50 reported for Fc1cccc(Cl)c1-c1ccc2[nH]cc(-c3cncc(O[C@@H]4CCCNC4)n3)c2c1 [Example 26, bis(2,2,2-trifluoroacetate)]
**A:** 8.22

**Q:** Identify measured pIC50 corresponding to C[C@H]1CCNC[C@H]1Oc1cncc(-c2n[nH]c3ccc(-c4c(F)cccc4F)cc23)n1
**A:** 8.40

**Q:** Answer with the recorded pIC50 of Fc1cccc(F)c1-c1ccc2[nH]cc(-c3cncc(OC4CCNCC4)n3)c2c1 only.
**A:** 8.22
